- Measured Target: Chymase purified form human skin mast cells (Homo sapiens)
- Sequence (P23946 22-247): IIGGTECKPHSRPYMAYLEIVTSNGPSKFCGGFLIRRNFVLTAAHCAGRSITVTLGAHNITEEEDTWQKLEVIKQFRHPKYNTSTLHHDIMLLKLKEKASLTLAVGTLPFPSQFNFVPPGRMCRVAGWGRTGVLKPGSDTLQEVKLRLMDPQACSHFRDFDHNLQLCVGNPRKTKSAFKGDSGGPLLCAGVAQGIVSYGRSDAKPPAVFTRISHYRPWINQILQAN
Attribute Measured: IC50

Worked cases, answers included:
Query (molecule): COC(=O)N(C)Cc1c(C(=O)O)n(Cc2cccc3ccc(F)cc23)c2ccccc12 ; field requested: IC50 0.2 nM

Also need O=C(O)c1cc2ccccc2n1Cc1cccc2ccc(F)cc12 , thanks. 17 nM

Also need COC(=O)N(C)Cc1c(C(=O)O)n(Cc2csc3ccc(F)cc23)c2ccccc12 , thanks. 1 nM

Next, consider the following molecule.
Query (molecule): Cc1ccc(C(=O)NCc2c(C(=O)O)n(Cc3cccc4ccccc34)c3ccccc23)cc1 ; field requested: IC50 38 nM

Values compiled from patent US7696240B2.
